Kd: recorded values
- target.of.assay: T1, human DLL3 extracellular domain (ECD) with C-terminal 8xHis tag and Avi tag (human, UniProt Q9NYJ7 27-492)
- T1 construct: extracellular domain; Expressed in Expi293, purified by IMAC and SEC; also called huDLL3; not shown: Avi tag
- T1 sequence: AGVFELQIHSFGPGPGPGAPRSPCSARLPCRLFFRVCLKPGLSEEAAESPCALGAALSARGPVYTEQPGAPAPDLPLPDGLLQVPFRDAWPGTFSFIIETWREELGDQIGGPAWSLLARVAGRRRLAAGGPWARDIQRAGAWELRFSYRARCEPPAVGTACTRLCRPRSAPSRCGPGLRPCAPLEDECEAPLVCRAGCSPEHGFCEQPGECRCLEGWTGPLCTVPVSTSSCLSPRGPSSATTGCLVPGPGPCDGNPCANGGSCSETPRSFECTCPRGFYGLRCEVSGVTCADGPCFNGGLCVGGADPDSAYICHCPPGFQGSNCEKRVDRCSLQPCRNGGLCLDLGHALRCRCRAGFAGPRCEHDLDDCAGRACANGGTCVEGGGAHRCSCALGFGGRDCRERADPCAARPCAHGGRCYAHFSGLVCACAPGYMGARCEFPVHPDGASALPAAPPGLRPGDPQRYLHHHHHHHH
- protocol.details: SPR (Biacore), 37 C; IgG captured on chip, human DLL3 ECD in solution; 1:1 Langmuir fit
Numbers only here, please. The scale is nM.

anti-DLL3 antibody 11A3 (IgG) (antibody, V domains shown, Full-length monoclonal antibody (IgG)) VH: QVQLQESGPGLVKPSETLSLTCTVSSDSISNYYWSWIRQPPGKGLEWISYIYYSGITNYNPSLKSRVTISVDTSKNQFSLKLSSVTAADTAVYYCARITVTGFYFDYWGQGTLVTVSS VL: EIVLTQSPGTLSLSPGERATLSCRASQSISRSYLAWYQQKPGQAPRHLIYGASSRATGIPDRFSGSGSGTDFILTISRLEPEDFAVYYCQQYDTSPLTFGGGTKVEIK
4.8

Attention now turns to another entry.
Recorded result, anti-DLL3 antibody 3F2 (IgG) (antibody, V domains shown, Full-length monoclonal antibody (IgG)) VH: QVQLQESGPGLVKPSGTLSLTCAVSGGSISSNNWWSWVRQPPGKGLEWIGDIHHSGSTNYKPSLKSRVTISVDKSKNQFSLNLISVTAADTAVYYCAREAGGYFDYWGQGILVTVSS VL: DIQMTQSPSTLSASVGDRVTITCRASQSISSWLAWYQQKPGKAPKLLISKASSLESGVPSRFSGSGSGPEFTLTISSLQPADFATYYCQQYNSYSTFGQGTKLEIK , Kd: 14.8
